Target: Catechol O-methyltransferase (Rattus norvegicus)
Sequence (P22734 whole entry): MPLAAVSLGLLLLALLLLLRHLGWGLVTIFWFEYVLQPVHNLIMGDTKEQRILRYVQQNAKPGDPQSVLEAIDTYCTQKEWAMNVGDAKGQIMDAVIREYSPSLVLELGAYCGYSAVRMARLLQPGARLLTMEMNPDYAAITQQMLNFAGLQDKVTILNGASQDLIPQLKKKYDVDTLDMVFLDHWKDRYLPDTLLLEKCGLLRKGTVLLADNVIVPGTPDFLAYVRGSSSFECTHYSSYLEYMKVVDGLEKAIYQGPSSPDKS
Experiment: Inhibitory activity against COMT in rat liver
Recorded IC50 for the following compounds
# output: numeric value plus its unit

STRUCTURE_STRING	QUANTITY_NAME	REPORTED
O=C(CCc1ccccc1)c1ccc(O)c(O)c1[N+](=O)[O-]	IC50	2 µM

// sample `O=C(CCCCc1ccccc1)c1ccc(O)c(O)c1[N+](=O)[O-]` , its IC50 was 0.11 µM

Memo: `O=C(Cc1ccccc1)c1ccc(O)c(O)c1[N+](=O)[O-]` , reported IC50: 0.13 µM

# IC50 (compound: `O=C(CCCc1ccccc1)c1ccc(O)c(O)c1[N+](=O)[O-]` ) is 0.13 µM
